target: PIK3CD (Human) (UniProt O00329); assay: Inhibition of PIK3CD Kinase Activity
Sequence (O00329 whole entry, looked up): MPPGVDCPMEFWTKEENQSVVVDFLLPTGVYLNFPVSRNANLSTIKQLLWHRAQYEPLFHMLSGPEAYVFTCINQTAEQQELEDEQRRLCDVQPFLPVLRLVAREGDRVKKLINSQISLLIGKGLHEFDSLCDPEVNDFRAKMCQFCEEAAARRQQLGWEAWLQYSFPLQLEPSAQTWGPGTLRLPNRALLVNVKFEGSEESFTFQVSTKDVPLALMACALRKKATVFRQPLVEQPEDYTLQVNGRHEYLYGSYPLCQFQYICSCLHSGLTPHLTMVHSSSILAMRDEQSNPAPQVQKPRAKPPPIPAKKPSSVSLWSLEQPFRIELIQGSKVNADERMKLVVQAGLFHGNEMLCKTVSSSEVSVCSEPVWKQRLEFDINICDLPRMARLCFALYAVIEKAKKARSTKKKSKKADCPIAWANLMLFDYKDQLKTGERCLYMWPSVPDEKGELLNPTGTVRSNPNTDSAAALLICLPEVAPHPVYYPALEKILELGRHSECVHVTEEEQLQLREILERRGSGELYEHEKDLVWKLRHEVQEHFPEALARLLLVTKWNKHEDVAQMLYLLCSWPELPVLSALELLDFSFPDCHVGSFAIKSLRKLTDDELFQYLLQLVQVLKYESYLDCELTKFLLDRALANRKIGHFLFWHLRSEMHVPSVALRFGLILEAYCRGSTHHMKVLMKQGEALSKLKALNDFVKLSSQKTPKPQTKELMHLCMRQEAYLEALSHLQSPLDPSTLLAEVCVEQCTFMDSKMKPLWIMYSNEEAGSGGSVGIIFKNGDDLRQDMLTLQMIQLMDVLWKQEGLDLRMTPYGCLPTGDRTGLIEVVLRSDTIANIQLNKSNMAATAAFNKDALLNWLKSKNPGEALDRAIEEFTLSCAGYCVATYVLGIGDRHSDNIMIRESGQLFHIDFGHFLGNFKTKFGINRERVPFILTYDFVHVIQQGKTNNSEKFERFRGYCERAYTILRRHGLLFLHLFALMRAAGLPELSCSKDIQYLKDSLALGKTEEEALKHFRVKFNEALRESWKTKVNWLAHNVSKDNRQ
pIC50: −log10 of the molar value.
OBSERVED_PROPERTY: pIC50

IN: Please look up its pIC50: "CC(C)(O)Cn1ncc2c(-c3cnc(N)nc3)nc(N3CCOCC3)nc21"
OUT: > 6.00

----------
pIC50: −log10 of the molar value.
Below are pIC50 values recorded for UniProtKB P42336.
Sequence (P42336 whole entry, looked up): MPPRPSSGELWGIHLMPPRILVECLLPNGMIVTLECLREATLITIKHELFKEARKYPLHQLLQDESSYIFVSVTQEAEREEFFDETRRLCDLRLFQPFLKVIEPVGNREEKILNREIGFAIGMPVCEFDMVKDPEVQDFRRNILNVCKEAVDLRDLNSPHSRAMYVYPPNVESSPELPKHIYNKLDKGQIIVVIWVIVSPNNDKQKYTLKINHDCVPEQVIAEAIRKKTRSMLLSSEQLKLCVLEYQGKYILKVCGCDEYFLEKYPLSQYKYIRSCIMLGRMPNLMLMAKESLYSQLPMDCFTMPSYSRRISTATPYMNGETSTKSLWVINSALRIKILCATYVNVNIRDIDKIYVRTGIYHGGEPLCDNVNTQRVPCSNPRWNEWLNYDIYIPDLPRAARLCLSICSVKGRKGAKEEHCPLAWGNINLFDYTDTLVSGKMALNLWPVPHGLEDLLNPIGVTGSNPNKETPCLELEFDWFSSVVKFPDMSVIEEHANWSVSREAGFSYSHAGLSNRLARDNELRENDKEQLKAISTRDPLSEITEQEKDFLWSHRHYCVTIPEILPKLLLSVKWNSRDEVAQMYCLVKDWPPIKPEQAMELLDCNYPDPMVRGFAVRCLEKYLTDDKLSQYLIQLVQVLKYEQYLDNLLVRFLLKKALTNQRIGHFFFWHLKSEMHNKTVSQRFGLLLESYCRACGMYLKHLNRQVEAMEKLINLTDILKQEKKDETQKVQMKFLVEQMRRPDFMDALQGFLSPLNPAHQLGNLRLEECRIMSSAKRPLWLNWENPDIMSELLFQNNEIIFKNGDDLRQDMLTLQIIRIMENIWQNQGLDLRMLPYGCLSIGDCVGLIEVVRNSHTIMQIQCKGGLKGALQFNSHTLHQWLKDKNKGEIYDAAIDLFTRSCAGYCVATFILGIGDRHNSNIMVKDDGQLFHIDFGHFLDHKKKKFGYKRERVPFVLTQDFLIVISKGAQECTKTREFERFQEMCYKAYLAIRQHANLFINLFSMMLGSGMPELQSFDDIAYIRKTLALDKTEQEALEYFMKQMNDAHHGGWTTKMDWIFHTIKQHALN

IN: Missing value: pIC50, UniProtKB P42336, entry "Nc1ncc(-c2nc(N3CCOCC3)nc3c2cnn3C2CCOCC2)cn1" . Fill in?
OUT: > 6.00

Consider the additional compound presented here.
IN: Missing value: pIC50, UniProtKB P42336, entry "CC(C)(O)Cn1ncc2c(-c3cnc(N)nc3)nc(N3CCOCC3)nc21" . Fill in?
OUT: > 6.00

----------
biological target: PIK3CB (Human) (UniProt P42338); assay: Inhibition of PIK3CB Kinase Activity
Sequence (P42338 whole entry, looked up): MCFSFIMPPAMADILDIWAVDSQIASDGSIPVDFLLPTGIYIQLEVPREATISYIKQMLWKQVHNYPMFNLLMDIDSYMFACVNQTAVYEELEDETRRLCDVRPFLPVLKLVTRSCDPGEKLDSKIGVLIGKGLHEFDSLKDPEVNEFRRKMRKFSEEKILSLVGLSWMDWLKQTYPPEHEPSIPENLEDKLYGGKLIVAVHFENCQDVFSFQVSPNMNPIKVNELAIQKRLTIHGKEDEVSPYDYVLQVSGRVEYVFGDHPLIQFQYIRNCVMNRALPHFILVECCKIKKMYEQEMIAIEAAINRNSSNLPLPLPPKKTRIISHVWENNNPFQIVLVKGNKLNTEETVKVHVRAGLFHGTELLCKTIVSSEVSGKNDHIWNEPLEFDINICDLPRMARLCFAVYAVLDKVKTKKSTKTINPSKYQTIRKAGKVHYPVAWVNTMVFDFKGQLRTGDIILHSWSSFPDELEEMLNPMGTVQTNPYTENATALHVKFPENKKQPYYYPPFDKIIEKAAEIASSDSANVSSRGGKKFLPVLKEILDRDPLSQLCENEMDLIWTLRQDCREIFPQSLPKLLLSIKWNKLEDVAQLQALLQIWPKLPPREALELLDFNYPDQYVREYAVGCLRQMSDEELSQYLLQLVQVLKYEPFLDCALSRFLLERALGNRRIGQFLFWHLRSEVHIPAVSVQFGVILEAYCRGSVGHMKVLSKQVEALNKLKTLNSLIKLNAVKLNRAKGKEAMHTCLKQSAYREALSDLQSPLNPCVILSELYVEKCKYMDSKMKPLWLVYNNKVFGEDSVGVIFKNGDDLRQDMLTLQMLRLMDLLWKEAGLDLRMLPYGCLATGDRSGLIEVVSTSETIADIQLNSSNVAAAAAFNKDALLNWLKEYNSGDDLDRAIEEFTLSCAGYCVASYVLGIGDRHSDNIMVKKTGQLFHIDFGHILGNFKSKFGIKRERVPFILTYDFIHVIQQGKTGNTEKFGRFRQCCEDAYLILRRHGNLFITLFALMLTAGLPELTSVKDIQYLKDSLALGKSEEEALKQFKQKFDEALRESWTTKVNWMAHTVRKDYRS
pIC50: −log10 of the molar value.
OBSERVED_PROPERTY: pIC50

IN: Please look up its pIC50: "CC(C)(O)Cn1ncc2c(-c3cnc(N)nc3)nc(N3CCOCC3)nc21"
OUT: > 6.00
